# ASSAY INFO: photoluminescence quantum yield (fraction); solvent given as SMILES
# EXPERIMENTAL PARAMETERS: in CC(C)CO
OBSERVATION TYPE: photoluminescence quantum yield

N#Cc1ccc(/C=C2\OC(=O)c3cc(N)ccc32)cc1
0.17

In: What value of photoluminescence quantum yield has been recorded for this entry: COCCOCCOCCOCCOc1cc(C=O)c(OCCOCCOCCOCCOC)cc1C=O
Out: 0.1

In: What value of photoluminescence quantum yield has been recorded for this entry: CN(C)c1ccc(/C=C2\OC(=O)c3cc(N)ccc32)cc1
Out: 0.36

In: What value of photoluminescence quantum yield has been recorded for this entry: COC(=O)C(Cc1ccc2oc(-c3ccc4c(c3)c3ccccc3n4-c3ccccc3)nc2c1)NC(=O)OC(C)(C)C (stereo not given)
Out: 1

In: What value of photoluminescence quantum yield has been recorded for this entry: COCCOCCOCCOc1ccc(OCCOCCOCCOC)c(C=O)c1
Out: 0.2

====

Measured photoluminescence quantum yield, listed per entry.
# ASSAY INFO: photoluminescence quantum yield (fraction); solvent given as SMILES
# EXPERIMENTAL PARAMETERS: in CS(C)=O
# respond with the number and nothing more

CCN(CC)c1ccc2c(c1)oc(=O)c1c(=O)oc3cc(C#Cc4ccc(C#N)cc4)ccc3c12
0.1
CSc1cc(-c2cc3cc4c5c(c3oc2=O)CCCN5CCC4)oc(=O)c1C#N
0.29
CCN(CC)c1ccc(-c2cc3c(s2)c(C(=O)OC)cc(=O)n3C)cc1
0.1

In: What value of photoluminescence quantum yield has been recorded for this entry: COc1cc(OC)cc(C2=C3C(C)=C(I)C(C)=[N+]3[B-](F)(F)n3c(/C=C/c4ccsc4)c(I)c(C)c32)c1
Out: 0.15

In: What value of photoluminescence quantum yield has been recorded for this entry: NS(=O)(=O)c1ccc(N2N=C(c3ccc(O)cc3)CC2c2ccc(F)cc2)cc1 (centres undefined)
Out: 0.93

In: What value of photoluminescence quantum yield has been recorded for this entry: CCC1=C(C)C(=O)n2c1cc1c(CCC(=O)OC)c(C)c(C)n1c2=O
Out: 1

In: What value of photoluminescence quantum yield has been recorded for this entry: c1ccc(-c2csc(-c3ccncc3)n2)cc1
Out: 0

In: What value of photoluminescence quantum yield has been recorded for this entry: CCCCCCCCC1(CCCCCCCC)c2cc(C#CC#Cc3ccc(N(c4ccccc4)c4ccccc4)cc3)ccc2-c2ccc(C=O)cc21
Out: 0.2

In: What value of photoluminescence quantum yield has been recorded for this entry: Cc1cccc(-c2nc3sc4ccccc4c3s2)c1
Out: 0.84

In: What value of photoluminescence quantum yield has been recorded for this entry: CCN(CC)c1ccc(/C=C/C2=[O+][B-](F)(F)Oc3c2c(=O)oc2cc(N(CC)CC)ccc32)cc1
Out: 0.035

In: What value of photoluminescence quantum yield has been recorded for this entry: CCN(CC)c1ccc2cc(/C=C/C(=C(C#N)C#N)c3ccc4c(c3)c3ccccc3n4CC)c(=O)oc2c1
Out: 0.185

In: What value of photoluminescence quantum yield has been recorded for this entry: O=c1c2ccccc2[nH]c2ccccc12
Out: 0.75

====

Measured photoluminescence quantum yield, listed per entry.
# ASSAY INFO: photoluminescence quantum yield (fraction); solvent given as SMILES
# EXPERIMENTAL PARAMETERS: in ClCCl
# respond with the number and nothing more

Consider the worked cases shown below.
CCc1c(C)c2n(c1C)[B-](F)(F)[N+]1=C(NCc3ccc(OC)cc3)C(SC#N)=CC1=C2C
0.93
COC1=[N+]2C(=C(c3ccccc3)c3ccc(OC)n3[B-]2(F)F)C=C1
0.2
CC1=CC(C)=[N+]2C1=C(c1c3ccccc3c(C)c3ccccc13)c1c(C)cc(C)n1[B-]2(F)F
0.011
C(=C\c1cnc2ccccc2n1)/c1ccc(N(c2ccccc2)c2ccccc2)cc1
0.67
COc1cc(-c2cnc(-c3ccncc3)o2)cc(OC)c1OC
0.76

In: What value of photoluminescence quantum yield has been recorded for this entry: CCCN1C(=O)c2c3c(c4c(c2C1=O)CCc1cc(-c2ccc(N(C)C)cc2)c(OC)cc1-4)-c1cc(OC)c(-c2ccc(N(C)C)cc2)cc1CC3
Out: 0.023

In: What value of photoluminescence quantum yield has been recorded for this entry: COc1ccc(C(=O)c2c(C)c3ccc4cccc5c6cccc7ccc2c(c76)c3c45)cc1
Out: 0.018

In: What value of photoluminescence quantum yield has been recorded for this entry: O=c1c2cccc3cccc(c32)c2nc3c4ccccc4c4ccccc4c3n12
Out: 0.15

In: What value of photoluminescence quantum yield has been recorded for this entry: CCCCc1ccc2ccc3cccc4ccc1c2c34
Out: 0.41

In: What value of photoluminescence quantum yield has been recorded for this entry: Cc1cc(C)c(B(c2c(C)cc(C)cc2C)N2c3ccccc3C(c3ccccc3)(c3ccccc3)c3ccccc32)c(C)c1
Out: 0.891

In: What value of photoluminescence quantum yield has been recorded for this entry: CCN(CC)c1ccc2c(c1)oc(=O)c1c(C)nc3c(c(C)nn3-c3ccccc3)c12
Out: 0.827

In: What value of photoluminescence quantum yield has been recorded for this entry: C[Si]1(C)c2cc(C#Cc3ccccc3)ccc2C=Cc2ccc(C#Cc3ccccc3)cc21
Out: 0.77

In: What value of photoluminescence quantum yield has been recorded for this entry: CN(C)c1ccc(/C=C/c2cc(/C=C/c3ccc(N(C)C)cc3)nc(/C=C/c3ccc(N(C)C)cc3)n2)cc1
Out: 0.22

In: What value of photoluminescence quantum yield has been recorded for this entry: [C-]#[N+]c1ccc(-c2ccc(NC)cc2)cc1
Out: 0.85

In: What value of photoluminescence quantum yield has been recorded for this entry: Cc1cccc(C)c1/C=C/c1nc(N2CCOCC2)c2c([n+]1[O-])CCCC2
Out: 0.29

In: What value of photoluminescence quantum yield has been recorded for this entry: COc1ccc(-c2c3ccccc3c(C#Cc3ccccc3)c3cc4cc(C)sc4cc23)cc1
Out: 0.73

In: What value of photoluminescence quantum yield has been recorded for this entry: F[B-]1(F)n2c(nc3c4ccccc4c4ccccc4c32)-c2ccc3ccccc3[n+]21
Out: 0.9

In: What value of photoluminescence quantum yield has been recorded for this entry: CN(C)c1ccc(/C=C/c2cnc(C#Cc3ccc(C#N)cc3)o2)cc1
Out: 0.24

In: What value of photoluminescence quantum yield has been recorded for this entry: Cc1cc2ccccc2c2c1c1ccccc1n2-c1ccc(C#N)cc1
Out: 0.04

In: What value of photoluminescence quantum yield has been recorded for this entry: CCN(CC)c1ccc2cc(C#N)/c(=N\C(=O)c3ccc(F)cc3)oc2c1
Out: 0.83

====

# ASSAY INFO: photoluminescence quantum yield (fraction); solvent given as SMILES
# EXPERIMENTAL PARAMETERS: in CC(C)=O
Measured photoluminescence quantum yield, listed per entry.
# respond with the number and nothing more

CCCCCCCCC1(CCCCCCCC)c2cc(C#CC#Cc3ccc(N(c4ccccc4)c4ccccc4)cc3)ccc2-c2ccc(C=O)cc21
0.23
CCCCCCN(c1ccccc1)c1ccc2c(c1)C(CC)(CC)c1cc(/C=C/c3ccc(/C=C(\C#N)C(=O)O)s3)ccc1-2
0.251
COc1ccc2c3c(cccc13)C(=O)c1ccccc1-2
0.56

In: What value of photoluminescence quantum yield has been recorded for this entry: COC(=O)/C=C/c1ccc2ccc3cccc4ccc1c2c34
Out: 0.51

In: What value of photoluminescence quantum yield has been recorded for this entry: CN(C)c1ccc(/C=C2\OC(=O)c3cc(N)ccc32)cc1
Out: 0.26

====

Measured photoluminescence quantum yield, listed per entry.
# ASSAY INFO: photoluminescence quantum yield (fraction); solvent given as SMILES
# EXPERIMENTAL PARAMETERS: in ClC(Cl)Cl
# respond with the number and nothing more

CCN(CC)c1ccc2cc(/C=C/C3=CC(/C=C/c4cc5ccc(N(CC)CC)cc5oc4=O)=[O+][B-](F)(F)O3)c(=O)oc2c1
0.504
COc1ccc2cc(C3=[N+]4C(=Nc5c(-c6ccccc6)cc(-c6ccc7cc(OC)ccc7c6)n5[B-]4(F)F)C(c4ccccc4)=C3Br)ccc2c1
0.12
CC[Si](CC)(CC)c1cc2ccc3cccc4ccc(c1C(=O)NC(C)(C)C)c2c34
0.162
Cc1ccc(CN(Cc2ccc(C)cc2)c2nc(C#N)c(N(Cc3ccc(C)cc3)Cc3ccc(C)cc3)nc2C#N)cc1
0.69
CC1(C)Cc2c(c3ccccc3c3nc4ccccc4nc23)O1
0.26

In: What value of photoluminescence quantum yield has been recorded for this entry: COc1ccc2c(C=C(C#N)C#N)cc3ccc4cc(C=C(C#N)C#N)c5ccc(OC)cc5c4c3c2c1
Out: 0.23

In: What value of photoluminescence quantum yield has been recorded for this entry: O=C1/C(=C\c2ccc(N(c3ccccc3)c3ccccc3)cc2)S(=O)(=O)c2ccccc21
Out: 0.142

In: What value of photoluminescence quantum yield has been recorded for this entry: COc1ccc(-c2cc3c(o2)=CC2=Cc4cc5oc(-c6ccc(OC)cc6)cc5n4[B-](F)(F)[N+]=32)cc1
Out: 0.86

In: What value of photoluminescence quantum yield has been recorded for this entry: N#Cc1nc(N(Cc2ccccc2F)Cc2ccccc2F)c(C#N)nc1N(Cc1ccccc1F)Cc1ccccc1F
Out: 0.79

In: What value of photoluminescence quantum yield has been recorded for this entry: CC1=C(/C=C/c2ccccc2)C(C)=[N+]2C1=C(c1ccccc1)c1c(C)c(/C=C/c3ccccc3)c(C)n1[B-]2(F)F
Out: 0.01
